Source of measurements: patent US20130053541A1

Listed here are binders together with their documented Sample B (Probe) Signal.
Biological target: T1, native human ESRRG protein (Estrogen-receptor related receptor gamma) (human, UniProt P62508 229-458, limits assumed)
T1 construct: the screened protein is called 'native human ESRRG protein'; also called ESSRG; ERRγ
T1 sequence (looked up): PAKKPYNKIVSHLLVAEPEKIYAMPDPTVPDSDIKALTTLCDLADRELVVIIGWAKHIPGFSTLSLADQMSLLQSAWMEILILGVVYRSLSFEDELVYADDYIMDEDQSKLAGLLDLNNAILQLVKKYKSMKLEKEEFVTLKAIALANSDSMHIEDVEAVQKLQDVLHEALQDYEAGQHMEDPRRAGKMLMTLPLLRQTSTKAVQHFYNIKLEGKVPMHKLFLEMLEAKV
Test: peptide microarray, Iteration 1; bound ESRRG detected with fluorescent anti-ESRRG mAb
Where no end group is shown, it is not given here.

BINDER	Sample B (Probe) Signal
Ac-AANYVLLL	2200 fluorescence intensity units
Ac-NSLRKHLL	856 fluorescence intensity units
Ac-ANNSQLLH	955 fluorescence intensity units
Ac-ANNILLLH	1090 fluorescence intensity units
Ac-LLHSSKSQ	819 fluorescence intensity units
Ac-AANMSLLL	1220 fluorescence intensity units
Ac-ANNSKLLH	1010 fluorescence intensity units
Ac-AIRVHLMG	690 fluorescence intensity units
